tgt: Human BCL-XL protein (N-terminal HiBiT tagged BCL-XL expressed in HT1080 cells) (Homo sapiens)
Construct: expressed in transfected cells; host or cells: HT-1080 (ATCC CCL-121), stably transduced with lentivirus pLV-UBC-N-HiBiT-BCL-XL-PGK-puro and selected with puromycin
experimentalDetails: HiBiT Based Degradation Assay
Format: cell-based
studyConditions: bottom of BCL-XL degradation curve (remaining HiBiT-BCL-XL signal vs DMSO control), HT1080 cells, 24 hours incubation
parameterMeasured: Ymin (24 h)

• COc1c(NC(=O)CN2CCC(CC[C@H](C)Oc3ccc(-c4ccc(N5CCc6cccc(C(=O)Nc7nc8ccccc8s7)c6C5)nc4C(=O)O)c(C)c3)CC2)ccc2c(C3CCC(=O)NC3=O)nn(C)c12 (single isomer, unassigned) [Compound 223a] = B (30% ≤ Ymin < 50%)
• Cc1cc(OC[C@@H]2C[C@H]2C2CCN(CC(=O)Nc3ccc4c(C5CCC(=O)NC5=O)nn(C)c4c3)CC2)ccc1-c1ccc(N2CCc3cccc(C(=O)Nc4nc5ccccc5s4)c3C2)nc1C(=O)O (single isomer, unassigned) [Compound 1003b] = B (30% ≤ Ymin < 50%)

###

tgt: Human BCL-XL protein (N-terminal HiBiT tagged BCL-XL expressed in HT1080 cells) (Homo sapiens, UniProt Q07817)
Construct: expressed in transfected cells; host or cells: HT-1080 (ATCC CCL-121), stably transduced with lentivirus pLV-UBC-N-HiBiT-BCL-XL-PGK-puro and selected with puromycin
Sequence (Q07817 whole entry): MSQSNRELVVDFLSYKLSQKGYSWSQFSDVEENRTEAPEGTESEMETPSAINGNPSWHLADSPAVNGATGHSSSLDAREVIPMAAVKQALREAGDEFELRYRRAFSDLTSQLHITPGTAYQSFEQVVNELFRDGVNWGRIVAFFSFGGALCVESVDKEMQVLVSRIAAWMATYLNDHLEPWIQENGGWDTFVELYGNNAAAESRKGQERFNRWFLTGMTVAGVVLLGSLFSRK
experimentalDetails: HiBiT Based Degradation Assay
Format: cell-based
studyConditions: BCL-XL degradation, HT1080 cells expressing N-HiBiT-BCL-XL, 24 hours incubation, normalized with DMSO control; geometric mean for multiple data points; read-out: EC50 (24 h)
In this section we review reported DC50 values for a set of molecules.

- Cc1cc(OC2CC3(CCN(CC(=O)Nc4ccc5c(C6CCC(=O)NC6=O)nn(C)c5c4)CC3)C2)ccc1-c1ccc(N2CCc3ccnc(C(=O)Nc4nc5ccccc5s4)c3C2)nc1C(=O)O (stereo not shown): < 10 nM
- Cc1cc(OCCCC2CCN(CCNc3ccc4c(C5CCC(=O)NC5=O)nn(C)c4c3)CC2)ccc1-c1ccc(N2CCc3cccc(C(=O)Nc4nc5ccccc5s4)c3C2)nc1C(=O)O (stereo not shown): < 10 nM
- COc1c(NC(=O)CN2CCC(CC[C@@H](C)Oc3ccc(-c4ccc(N5CCc6cccc(C(=O)Nc7nc8ccccc8s7)c6C5)nc4C(=O)O)c(C)c3)CC2)ccc2c(C3CCC(=O)NC3=O)nn(C)c12 (single isomer, unassigned) [Compound 223b]: 10 to 100 nM

Now look at this one.
Need DC50 of Cc1cc(OCCCC2CCN(CC(=O)Nc3ccc4c(C5CCC(=O)NC5=O)nn(C)c4c3)CC2)ccc1-c1ccc(N2CCc3ccnc(C(=O)Nc4nc5ccccc5s4)c3C2)nc1C(=O)O (stereo not shown) , thanks.
< 10 nM

###

tgt: Human BCL-XL protein (N-terminal HiBiT tagged BCL-XL expressed in HT1080 cells) (Homo sapiens)
Construct: expressed in transfected cells; host or cells: HT-1080 (ATCC CCL-121), stably transduced with lentivirus pLV-UBC-N-HiBiT-BCL-XL-PGK-puro and selected with puromycin
experimentalDetails: HiBiT Based Degradation Assay
Assay type: cell-based
studyConditions: BCL-XL degradation, HT1080 cells expressing N-HiBiT-BCL-XL, 24 hours incubation, normalized with DMSO control; geometric mean for multiple data points; read-out: EC50 (24 h)
Method: HiBiT Based Degradation Assay Human BCL-XL protein coding open reading frame fused with N-terminal HiBiT coding sequence (N-HiBiT-BCL-XL) was synthesized from Integrated DNA Technologies (IDT). Next, N-HiBiT-BCL-XL sequence was cloned into pLV-UBC-PGK-Puro, a lentivirus plasmid purchased from Vectorbuilder, to generate pLV-UBC-N-HiBiT-BCL-XL-PGK-puro. […] After incubation, luminescence was read on a PHERAstar FSX Plate Reader (BMG). […]
In this section we review reported DC50 values for a set of compounds.

* Cn1nc(C2CCC(=O)NC2=O)c2ccc(NC(=O)CN3CCC(CCCOc4ccc(-c5ccc(N6CCc7cccc(C(=O)Nc8nc9ccccc9s8)c7C6)nc5C(=O)O)c(C(F)(F)F)c4)CC3)cc21 (stereo not drawn) | < 10 nM

Need DC50 of Cc1c(OCCCC2CCN(CC(=O)Nc3ccc4c(C5CCC(=O)NC5=O)nn(C)c4c3)CC2)cccc1-c1ccc(N2CCc3ccnc(C(=O)Nc4nc5ccccc5s4)c3C2)nc1C(=O)O (stereo not drawn) , thanks.
10 to 100 nM

Need DC50 of Cc1c(OC[C@@H]2C[C@H]2C2CCN(CC(=O)Nc3ccc4c(C5CCC(=O)NC5=O)nn(C)c4c3)CC2)cccc1-c1ccc(N2CCc3cccc(C(=O)Nc4nc5ccccc5s4)c3C2)nc1C(=O)O (single isomer, unassigned) [Compound 1001a] , thanks.
10 to 100 nM

###

tgt: Human BCL-XL protein (N-terminal HiBiT tagged BCL-XL expressed in HT1080 cells) (Homo sapiens, UniProt Q07817)
Construct: expressed in transfected cells; host or cells: HT-1080 (ATCC CCL-121), stably transduced with lentivirus pLV-UBC-N-HiBiT-BCL-XL-PGK-puro and selected with puromycin
experimentalDetails: HiBiT Based Degradation Assay
Assay type: cell-based
studyConditions: bottom of BCL-XL degradation curve (remaining HiBiT-BCL-XL signal vs DMSO control), HT1080 cells, 24 hours incubation
parameterMeasured: Ymin (24 h)

Reference set (4 entries):
- Cc1cc(O[C@@H](C)CCC2CCN(CC(=O)Nc3ccc4c(C5CCC(=O)NC5=O)nn(C)c4n3)CC2)ccc1-c1ccc(N2CCc3cccc(C(=O)Nc4nc5ccccc5s4)c3C2)nc1C(=O)O (single isomer, unassigned) [Compound 225a]: B (30% ≤ Ymin < 50%)
- C[C@H]1C[C@@H](CCCOc2ccc(-c3ccc(N4CCc5cccc(C(=O)Nc6nc7ccccc7s6)c5C4)nc3C(=O)O)c(C(F)(F)F)c2)CCN1CC(=O)Nc1ccc2c(C3CCC(=O)NC3=O)nn(C)c2c1 (some centres unmarked) [Compound 209a]: A (Ymin < 30%)
- Cc1c(OCCCC2CCN(CCNc3ccc4c(C5CCC(=O)NC5=O)nn(C)c4c3)CC2)cccc1-c1ccc(N2CCc3cccc(C(=O)Nc4nc5ccccc5s4)c3C2)nc1C(=O)O (centres unmarked): B (30% ≤ Ymin < 50%)
- Cc1cc(OC2CC3(CCN(CC(=O)Nc4ccc5c(C6CCC(=O)NC6=O)nn(C)c5c4F)CC3)C2)ccc1-c1ccc(N2CCc3ccnc(C(=O)Nc4nc5ccccc5s4)c3C2)nc1C(=O)O (centres unmarked): A (Ymin < 30%)

Now look at this one.
Need Ymin (24 h) of Cc1c(OCCCC2CCN(CCOc3ccc4c(C5CCC(=O)NC5=O)nn(C)c4c3)CC2)cccc1-c1ccc(N2CCc3cccc(C(=O)Nc4nc5ccccc5s4)c3C2)nc1C(=O)O (centres unmarked) , thanks.
B (30% ≤ Ymin < 50%)
